Test system: Echinochloa crus-galli (ECHCG)
Experiment: Post-emergence efficacy, Method A
Type: in vivo
Conditions: Echinochloa crus-galli, post-emergence, 312 h; Application Rate 500 g/Ha; evaluated after 13 days; Method A; read-out: Control of weed species after post-emergence application, ECHCG (100=total damage to plant; 0=no damage to plant)
recorded.metric: pest or weed control at 500 g/ha (%)
Give just the number in %; leave the unit off.

>  <compound>
Nc1cc(-c2cc[n+](CCC(=O)O)nc2)nc(N)n1

>  <pest or weed control at 500 g/ha / %>
50

$$$$
>  <compound>
N[C@@H](CC[n+]1ccc(-c2ncccn2)cn1)C(=O)O [Compound A201, 2,2,2-trifluoroacetate]

>  <pest or weed control at 500 g/ha / %>
70

$$$$
>  <compound>
Nc1nccc(-c2cc[n+](CCC(=O)O)nc2)n1

>  <pest or weed control at 500 g/ha / %>
70

$$$$
>  <compound>
O=C(O)CC[n+]1ccc(-c2ccc(C(F)(F)F)cn2)cn1

>  <pest or weed control at 500 g/ha / %>
40

$$$$
>  <compound>
CC(C(=O)OC(C)(C)C)[n+]1ccc(-c2ncccn2)cn1 (stereo not shown)

>  <pest or weed control at 500 g/ha / %>
10

$$$$
>  <compound>
Cc1ccc(-c2cc[n+](CCC(=O)O)nc2)nc1

>  <pest or weed control at 500 g/ha / %>
20

$$$$
>  <compound>
O=C(O)CC[n+]1ccc(-c2ncc(C(F)(F)F)cc2Cl)cn1

>  <pest or weed control at 500 g/ha / %>
0

$$$$
>  <compound>
O=C(O)c1ccc(C[n+]2ccc(-c3ncccn3)cn2)cc1

>  <pest or weed control at 500 g/ha / %>
10

$$$$
>  <compound>
N#Cc1ccnc(-c2cc[n+](CCO)nc2)n1

>  <pest or weed control at 500 g/ha / %>
30

$$$$
>  <compound>
Cc1cc(F)cnc1-c1cc[n+](CCCS(=O)(=O)[O-])nc1

>  <pest or weed control at 500 g/ha / %>
0

$$$$

Ask: Recorded pest or weed control at 500 g/ha for O=S(=O)([N-]CC[n+]1ccc(-c2ncccn2)cn1)C(F)(F)F , please?
Result: 30

Ask: May I ask what pest or weed control at 500 g/ha has been recorded for CC(C)(CC(=O)O)[n+]1ccc(-c2ccncn2)cn1 ?
Result: 80

Ask: What value of pest or weed control at 500 g/ha has been reported for the following compound? O=S(=O)([O-])OCC[n+]1ccc(-c2ncccn2)cn1
Result: 70

Ask: Would you kindly share the measured pest or weed control at 500 g/ha for O=C([O-])CCC[n+]1ccc(-c2ncccn2)cn1 ?
Result: 40

Ask: So what does the record say about pest or weed control at 500 g/ha for CC(CS(=O)(=O)[O-])[n+]1ccc(-c2ncccn2)cn1 (stereo not shown) ?
Result: 100

Ask: Report pest or weed control at 500 g/ha for CC(C)(C[n+]1ccc(-c2ccncn2)cn1)C(=O)O please.
Result: 60

Ask: Consider the compound shown here: O=S(=O)([O-])CC[n+]1ccc(-c2ccc(C(F)(F)F)cn2)cn1 What is its recorded pest or weed control at 500 g/ha?
Result: 50

Ask: Query: pest or weed control at 500 g/ha; subject: O=S(=O)([O-])N1CCCC1C[n+]1ccc(-c2ncccn2)cn1 (stereo not shown)
Result: 70

Ask: I have this compound here, O=S(=O)([O-])CC[n+]1ccc(-c2ccnc(C(F)(F)F)c2)cn1 , and I need its recorded pest or weed control at 500 g/ha.
Result: 70

* * *

Tested on: Eleusine indica (ELEIN)
Assay: Post-emergence efficacy, Method A
Format: in vivo
Conditions: Application rate 500 g/Ha; evaluated after 13 days; 100=total damage to plant, 0=no damage to plant
Binarize Control of weed species after post-emergence application, ELEIN at 80; below is met, at or above is not met.

The following compounds have reported results that may help.
>  <compound>
N#Cc1cnc(-c2cc[n+](CCS(=O)(=O)O)nc2)nc1 [Compound A25]

>  <class.assignment>
met

$$$$
>  <compound>
O=C(O)CC[n+]1ccc(-c2ncccn2)cn1.[Cl-] [Compound A26]

>  <class.assignment>
not met

$$$$
>  <compound>
Cc1n[n+](CCC(=O)O)ccc1-c1ncccn1.[Cl-] [Compound A133]

>  <class.assignment>
not met

$$$$

Switching to the query record.
Ask: is_below(Control of weed species after post-emergence application, ELEIN, 80) for COc1cc(C)nc(-c2cc[n+](CCS(=O)(=O)O)nc2)n1 [Compound A94] ?
Result: met

* * *

Test system: Chenopodium album (CHEAL)
Assay: Post-emergence efficacy, Method A
Type: in vivo
Settings: Chenopodium album, post-emergence, 312 h; Application rate 500 g/Ha; evaluated after 13 days; 100=total damage to plant, 0=no damage to plant; read-out: Control of weed species after post-emergence application, CHEAL
recorded.metric: pest or weed control at 500 g/ha (%)
Give the number; % is assumed, so skip it.

Here's what some known entries look like.
>  <smiles.string>
O=S(=O)([O-])CC[n+]1ccc(-c2ncc(F)cn2)cn1

>  <measured.on>
Chenopodium album (CHEAL)

>  <pest or weed control at 500 g/ha, %>
60

$$$$
>  <smiles.string>
Cc1n[n+](CCS(=O)(=O)[O-])ccc1-c1ncccn1

>  <measured.on>
Chenopodium album (CHEAL)

>  <pest or weed control at 500 g/ha, %>
70

$$$$
>  <smiles.string>
COc1ccnc(-c2cc[n+](CCS(=O)(=O)[O-])nc2)n1

>  <measured.on>
Chenopodium album (CHEAL)

>  <pest or weed control at 500 g/ha, %>
50

$$$$

Could you now look at the following compound, please?
Ask: // lookup pest or weed control at 500 g/ha for O=S(=O)([O-])CC[n+]1ccc(-c2cnc(C(F)(F)F)cn2)cn1
Result: 100

* * *

Test system: Chenopodium album (CHEAL)
Experiment: Post-emergence efficacy, Method A
Format: in vivo
Conditions: Chenopodium album, post-emergence, 312 h; Application rate 500 g/Ha; evaluated after 13 days; 100=total damage to plant, 0=no damage to plant; read-out: Control of weed species after post-emergence application, CHEAL
recorded.metric: pest or weed control at 500 g/ha (%)
// units = %; emit number, no label

>  <compound>
CN(C)C(=O)c1cnc(-c2cc[n+](CCC(=O)[O-])nc2)nc1 [Compound A92]

>  <pest or weed control at 500 g/ha [%]>
90

$$$$
>  <compound>
Cc1n[n+](CCC(=O)O)ccc1-c1ccccn1 [Compound A145]

>  <pest or weed control at 500 g/ha [%]>
10

$$$$
>  <compound>
Cc1nccc(-c2cc[n+](CCS(=O)(=O)[O-])nc2)n1 [Compound A31]

>  <pest or weed control at 500 g/ha [%]>
100

$$$$

Ask: Requested read-out: pest or weed control at 500 g/ha. Entry: O=S(=O)([O-])CCC[n+]1ccc(-c2ccc(O)nn2)cn1 [Compound A52]
Result: 60

Ask: # get_value(readout='pest or weed control at 500 g/ha', item= Cc1cnc(-c2cc[n+](CCS(=O)(=O)[O-])nc2)c(F)c1 [Compound A135] )
Result: 20

Ask: Entry CCOP(=O)(CC[n+]1ccc(-c2ncccn2)cn1)OCC [Compound A124] has what pest or weed control at 500 g/ha?
Result: 0

Ask: Name the reported pest or weed control at 500 g/ha value associated with the compound O=S(=O)([O-])CCC[n+]1ccc(-c2cnc(Cl)cn2)cn1 [Compound A79]
Result: 30

Ask: Please look up its pest or weed control at 500 g/ha: O=C([O-])CC[n+]1ccc(-c2nccc(C(F)(F)F)n2)cn1 [Compound A39]
Result: 90

Ask: Entry Cc1ccnc(-c2cc[n+](CCS(=O)(=O)[O-])nc2)n1 [Compound A21] : reported pest or weed control at 500 g/ha = ?
Result: 80

Ask: GET /values?readout=pest or weed control at 500 g/ha&item= Cc1cnc(-c2cc[n+](CCC(=O)O)nc2)nc1 [Compound A36]
Result: 90

Ask: Give its pest or weed control at 500 g/ha value. Item: O=C([O-])CC[n+]1ccc(-c2ccc(F)cn2)cn1 [Compound A71]
Result: 60

Ask: Which pest or weed control at 500 g/ha value is on record for COc1ccc(-c2cc[n+](CCCS(=O)(=O)[O-])nc2)nn1 [Compound A115] ?
Result: 100

Ask: Value lookup for pest or weed control at 500 g/ha; key = Cc1cccc(-c2cc[n+](CCC(=O)[O-])nc2)n1 [Compound A63]
Result: 30

Ask: Look at this compound and give its reported pest or weed control at 500 g/ha. Cc1cc(F)cnc1-c1cc[n+](CCC(=O)O)nc1 [Compound A151]
Result: 20

Ask: May I ask what pest or weed control at 500 g/ha has been recorded for CC(C)OC(=O)CC[n+]1ccc(-c2ncccn2)cn1 [Compound A81, 2,2,2-trifluoroacetate] ?
Result: 90

Ask: Record request: pest or weed control at 500 g/ha value, item O=S(=O)([O-])CC[n+]1ccc(-c2ncccc2F)cn1 [Compound A68]
Result: 70

Ask: Please report the recorded pest or weed control at 500 g/ha for Cc1cccnc1-c1cc[n+](CCC(=O)[O-])nc1 [Compound A65] .
Result: 10

Ask: Need pest or weed control at 500 g/ha, item CN(C)c1cnc(-c2cc[n+](CCC(=O)[O-])nc2)nc1 [Compound A42]
Result: 0

Ask: # query: pest or weed control at 500 g/ha of entry CS(=O)(=O)c1cnc(-c2cc[n+](CCC(=O)[O-])nc2)nc1 [Compound A46]
Result: 10
